- ASSAY METHOD TEXT: small-molecule binders of probe aLefty1, primary screen, biochemical, small-molecule microarray, 635/667 nm fluorescence (AID 1153);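 also: score merges spot fluorescence with signal-to-noise ratio from the scanned slide images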
- ASSAY CONTEXT: higher = more signal
Use label 1 when the recorded composite z-score is no lower than 0.02; use label 0 when it is lower.

Sample answers from the record:
{"COMPOUND": "CCOC(=O)C1=CCC(C(C)(C)C)N(S(=O)(=O)c2ccc(C)cc2)C1 (configuration not stated)", "CATEGORY LABEL": "label 1"}
{"COMPOUND": "COc1ccc([Si](C)(C)[C@H]2[C@H](CCn3cc([C@H](O)c4ccccc4)nn3)O[C@@]3(C(=O)N(Cc4cccc(N5CCC5=O)c4)c4ccccc43)[C@@H]2C)cc1", "CATEGORY LABEL": "label 1"}
{"COMPOUND": "O=C1[C@]2(CO)C=C(Br)[C@@H](C[C@@H]2c2ccccc2)[C@@]12CO2", "CATEGORY LABEL": "label 0"}
{"COMPOUND": "[N-]=[N+]=Nc1ccccc1[C@@H]1OC(c2ccc(OCCCO)cc2)=N[C@]1(CCS(=O)(=O)c1ccccc1)C(=O)N1CCOCC1", "CATEGORY LABEL": "label 1"}
{"COMPOUND": "O=C1C2C=CC(C(O)c3ccc(-c4ccccc4)s3)N(n3cnnc3)C2C(=O)N1Cc1ccccc1 (configuration not stated)", "CATEGORY LABEL": "label 1"}
{"COMPOUND": "C=CCNC(=O)[C@@H]1[C@H]2C(=O)O[C@H](c3ccccc3)[C@H](c3ccccc3)N2[C@H](c2ccc(OCCO)cc2)[C@@]12C(=O)Nc1ccccc12", "CATEGORY LABEL": "label 1"}

Okay, now this compound:
[ask] Item C=CCC(OC(C)=O)[C@@H]1[C@@H](N(Cc2ccc(-c3cccc(C(F)(F)F)c3)o2)C(=O)c2ccc(C)cc2)c2cc(OCCCO)ccc2N1C(=O)c1ccc(-c2ccccc2)cc1 (some centres not stated) with composite z-score of 0.02 or above?
[reply] label 0

Where do the numbers come from? From PubChem BioAssay.
